system: AD38 cells; test: Viability of AD38 cells (Promega CellTiter-Glo); type: cell-based; details: 10 μM compound, 6 days, CellTiter-Glo luminescence normalized to DMSO control (100%)
Measurement type: AD38 Viability Normalized Result (cmpd/DMSO %) at 10 μM

| Molecule | Test target | Value units | Observed value |
| --- | --- | --- | --- |
| Cc1ncc(CNC(=O)c2ccc3c(c2)NC(=O)c2ccccc2[S+]3[O-])s1 (stereo not shown) [compound 1526] | AD38 cells | % | 94 |
| CN1c2ccc(C(=O)NCc3cnc(-c4ccc(C#N)cc4)s3)cc2NC(=O)c2ccccc21 [compound 1974] | AD38 cells | % | 103 |
| O=C(NCc1cnc(-c2cncnc2)s1)c1ccc2c(c1)NC(=O)c1ccccc1S2(=O)=O [compound 1626] | AD38 cells | % | 99 |
| O=C(O)COc1ccc(-c2ncc(CNC(=O)c3ccc4c(c3)NC(=O)c3ccccc3S4)s2)cc1 [compound 1607] | AD38 cells | % | 98 |
| O=C(NCc1cnc(-c2ccc(OC[C@@H]3CCNC3)cc2)s1)c1ccc2c(c1)NC(=O)c1ccccc1S2(=O)=O [compound 11140] | AD38 cells | % | 99 |
| CC(C)(C)OC(=O)N1CCC[C@@H]1COc1ccc(-c2ncc(CNC(=O)c3ccc4c(c3)NC(=O)c3ccccc3S4(=O)=O)s2)cc1 [11104-A] | AD38 cells | % | 74 |
| C=CCN1c2ccc(C(=O)NCc3cnc(-c4ccc(C#N)cc4)s3)cc2NC(=O)c2ccccc21 [compound 1921] | AD38 cells | % | 101 |
